Test system: TIMC from 4T1, CT26, RENCA, B16LU8, MCA203, E0771 tumors
run-description: Staining of single cell suspensions from tumor, bone marrow, spleen and lungs in multiple mouse tumor models
Assay type: cell-based
measurement-setup: BALB/c (4T1, CT26, RENCA) and C57Bl/6 (B16LU8, MCA203, E0771) tumor models
property-measured: recognition of TIMC

aptamer 14: 2'Fluoro-RNA aptamer, SEQ ID NO: 14, specific for tumor infiltrating myeloid cells (nucleic acid, 2'-fluoro modified RNA, modified positions not given here, Cy3-labelled for binding assays) GGAGGACGAUGCGGUGUACACUGAUUGCCUUUGUGUUAUGAGCGACAGAUCUGCCAGACGACUCGCUGAGGAUCCGAGA = able to recognize TIMC
aptamer 3: 2'Fluoro-RNA aptamer, SEQ ID NO: 3, specific for tumor infiltrating myeloid cells; ligand ANXA4 (nucleic acid, 2'-fluoro modified RNA, modified positions not given here, Cy3-labelled for binding assays, ligand ANXA4) GGAGGACGAUGCGGAUUACCAACUUGAACGCCGAGAGUGUGGUCACGUGUUCUGCAGACGACUCGCUGAGGAUCCGAGA = able to recognize TIMC
aptamer 11: 2'Fluoro-RNA aptamer, SEQ ID NO: 11, specific for tumor infiltrating myeloid cells; ligand vimentin (nucleic acid, 2'-fluoro modified RNA, modified positions not given here, Cy3-labelled for binding assays, ligand vimentin) GGAGGACGAUGCGGGGAAGCAACACUUAGUCGCGAUUGAUACGUGCGCAGUCAUCAGACGACUCGCUGAGGAUCCGAGA = able to recognize TIMC
aptamer 6: 2'Fluoro-RNA aptamer, SEQ ID NO: 6, specific for tumor infiltrating myeloid cells (nucleic acid, 2'-fluoro modified RNA, modified positions not given here, Cy3-labelled for binding assays) GGAGGACGAUGCGGCAGGUGCGGGAUCUAAUGCGUAGACAGCCAUAUACUGACACAGACGACUCGCUGAGGAUCCGAGA = able to recognize TIMC
